- TARGET_DESC: Aldehyde dehydrogenase 1A1 (Homo sapiens)
- MEASUREMENT_PROTOCOL: qHTS Assay for Inhibitors of Aldehyde Dehydrogenase 1 (ALDH1A1)
- TEST_CONTEXT: Purified ALDH1A1, NADH fluorescence, propionaldehyde substrate; series mostly up to 75.3 µM
About 16,000 (7.3%) of roughly 220,000 compounds were called active. Inconclusive results (about 25%) are left out. Calls come from the whole dose curve; as a rule, active = well fitted inhibition curve with a large enough effect (not every such curve was filed as active); inconclusive = small, poorly fitted or top-dose-only effect, or another doubt; inactive = no such curve, though single readings can be large or run the other way. The list comes from a sample in which actives are over-represented; it also holds close analogues and randomly drawn compounds.
Hello, when you answer, please use one of the following outcomes: active, inactive

MOLECULE_SMILES: Clc1ccc(C2=CSC3=Nc4cccc5cccc(c45)N23)cc1
LABEL_CLASS: active

MOLECULE_SMILES: COc1ccccc1OCCNC(=O)c1cc([N+](=O)[O-])cc([N+](=O)[O-])c1
LABEL_CLASS: inactive

Please let me know the test result on file for `Cc1cc(-c2ccc(/C=N/n3cnnc3)o2)c([N+](=O)[O-])cc1C` .
active

I'd appreciate the recorded outcome for `Cc1cc([N+](=O)[O-])c(-c2ccc(/C=N/n3cnnc3)o2)cc1Cl` from this test.
inactive

###

- TARGET_DESC: Aldehyde dehydrogenase 1A1 (Homo sapiens) (UniProt P00352)
- Sequence (P00352 whole entry, looked up): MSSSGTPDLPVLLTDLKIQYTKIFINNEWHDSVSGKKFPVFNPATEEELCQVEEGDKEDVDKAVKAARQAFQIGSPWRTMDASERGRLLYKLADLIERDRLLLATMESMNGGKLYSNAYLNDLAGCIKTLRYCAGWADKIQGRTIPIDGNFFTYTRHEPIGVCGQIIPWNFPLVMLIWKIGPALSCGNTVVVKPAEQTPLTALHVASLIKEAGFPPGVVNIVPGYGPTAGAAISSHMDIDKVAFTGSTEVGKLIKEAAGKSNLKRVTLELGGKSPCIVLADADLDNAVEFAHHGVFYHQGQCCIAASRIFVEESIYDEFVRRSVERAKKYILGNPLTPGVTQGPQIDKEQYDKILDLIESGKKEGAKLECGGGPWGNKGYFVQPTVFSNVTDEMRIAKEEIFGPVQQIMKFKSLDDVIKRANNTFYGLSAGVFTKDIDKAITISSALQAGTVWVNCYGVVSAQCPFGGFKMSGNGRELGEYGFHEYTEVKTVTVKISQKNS
- MEASUREMENT_PROTOCOL: qHTS Assay for Inhibitors of Aldehyde Dehydrogenase 1 (ALDH1A1); note: potency is the fitted concentration of half-maximal effect
- TEST_CONTEXT: Purified ALDH1A1, NADH fluorescence, propionaldehyde substrate; series mostly up to 75.3 µM
Among all 220,000 compounds or so, about 16,000 (7.3%) were called active. Not shown: some 25% with an inconclusive outcome. The full list was thinned out, with actives kept by preference.

COMPOUND: O=C1CCC(CCC(=O)N2CCCC(C(=O)c3ccc(Cl)cc3)C2)=NN1 (stereo not drawn)
Potency: inactive
--
COMPOUND: Cn1c2c(c(=O)n(C)c1=O)C1c3ccccc3OCC1C(C)(C)O2 (stereo not drawn)
Potency: 28.2 µM (active)
--
COMPOUND: COc1ccc(/C=C2\SC(=S)N(CC(=O)NNC(=O)c3ccncc3)C2=O)cc1
Potency: inactive

###

- TARGET_DESC: Aldehyde dehydrogenase 1A1 (Homo sapiens) (UniProt P00352)
- MEASUREMENT_PROTOCOL: qHTS Assay for Inhibitors of Aldehyde Dehydrogenase 1 (ALDH1A1)
- TEST_CONTEXT: Purified ALDH1A1, NADH fluorescence, propionaldehyde substrate; series mostly up to 75.3 µM
Among all 220,000 compounds or so, about 16,000 (7.3%) were called active. Another 25% or so got no clear call; they are omitted. The call rests on the fitted dose curve; in most records, active means well fitted inhibition curve with a large enough effect (not every such curve was filed as active); inconclusive means small, poorly fitted or top-dose-only effect, or another doubt; inactive means no such curve, though single readings can be large or run the other way. What follows is part of a selection rich in actives, with near analogues and random picks from the rest.
# output must be one of Y (active), N (inactive)

What did this assay record as the result for `Cc1c(Cl)cnc(NC(=O)COC(=O)c2ccc(S(=O)(=O)NCc3ccco3)cc2)c1Cl` ?
N

Entry CCn1cc(CN2CCCC(CNS(=O)(=O)Cc3ccccc3)C2)cn1 (stereo unspecified) : call = ?
N

Check the results log: what was the call for CSCCC(NC(=O)c1ccco1)C(=O)OCC(=O)Nc1ncc(Cl)c(C)c1Cl (stereo unspecified) ?
Y

What classification did CC(=O)C1C(c2ccc(Cl)cc2)NC(=O)NC1(O)C(F)(F)F (stereo unspecified) end up with in this test?
N

Give the logged outcome of this assay for the following compound: `CC(=O)Nc1ccc(S(=O)(=O)N(C)c2ccc(OCC(=O)OCC(=O)N3CCCCC3)cc2)cc1`
N

Tell me the assay call for CCOC(=O)C1C(c2ccc(Cl)cc2)NC(=S)NC1(O)C(F)(F)F (stereo unspecified) please.
Y

###

- TARGET_DESC: Aldehyde dehydrogenase 1A1 (Homo sapiens)
- MEASUREMENT_PROTOCOL: qHTS Assay for Inhibitors of Aldehyde Dehydrogenase 1 (ALDH1A1); note: potency is the fitted concentration of half-maximal effect
- TEST_CONTEXT: Purified ALDH1A1, NADH fluorescence, propionaldehyde substrate; series mostly up to 75.3 µM
Hit rate of the full screen: of about 220,000 compounds, about 16,000 (7.3%) were called active. Not shown: some 25% with an inconclusive outcome. This is one part of a sample in which actives are shown more often than they occur.
ATTRIBUTE_MEASURED: Potency

COMPOUND: Cc1ccc(C)c(NC(=O)C2CCCN2C(=O)OC(C)(C)C)c1 (stereo not given)
ENDPOINT_RESULT: inactive
--
COMPOUND: COc1ccc(C(c2nnnn2Cc2cccs2)N2CCN(c3ccccc3)CC2)cc1OC (stereo not given)
ENDPOINT_RESULT: 2 µM (active)
--
COMPOUND: O=C(CCc1n[nH]c(=O)[nH]c1=O)N/N=C/c1ccc(Br)o1
ENDPOINT_RESULT: inactive
--
COMPOUND: CCOC(=O)c1ccc(N2C(=O)CC(N3CC(C)OC(C)C3)C2=O)cc1 (stereo not given)
ENDPOINT_RESULT: 7.94 µM (active)
--
COMPOUND: CN1CCN(c2ccc(NC(=O)c3ccc4c(c3)OCCO4)cc2Cl)CC1
ENDPOINT_RESULT: inactive
--
COMPOUND: O=C1NC(c2cccc(Cl)c2)Nc2ccccc21 (stereo not given)
ENDPOINT_RESULT: inactive
--
COMPOUND: O=C(CSc1nc(-c2ccccc2)cs1)Nc1cccc([N+](=O)[O-])c1
ENDPOINT_RESULT: inactive
--
COMPOUND: CN(Cc1cccs1)C(=O)Cc1c[nH]c2ccccc12
ENDPOINT_RESULT: inactive

// for each compound below, give its Potency
1. CCOc1ccc(NC(=O)CC2C(=O)N(c3ccccc3)C(=O)N2CCOC)cc1 (stereo not given)
2. COc1cccc(OC)c1C(=O)Nc1ccc(Cc2ccncc2)cc1
3. CCc1cccc(C)c1NC(=S)N(CCCN1CCN(C)CC1)Cc1cccs1
4. CCN(CC)c1ccc(/C=N/Nc2nc(C)cc(C)n2)c(O)c1
5. C/C(=N/N1CCN(Cc2cccc3ccccc23)CC1)c1cccnc1
6. COc1ccc(N2C(=O)C(CC(=O)Nc3ccccc3)N(Cc3ccc(OC)c(OC)c3)C2=O)cc1 (stereo not given)
7. CC(C)(C)c1cc(CN2CCN(CCC#N)CC2)cc(C(C)(C)C)c1O

1. 15.8 µM (active)
2. inactive
3. inactive
4. inactive
5. inactive
6. inactive
7. 7.08 µM (active)

###

- TARGET_DESC: Aldehyde dehydrogenase 1A1 (Homo sapiens)
- MEASUREMENT_PROTOCOL: qHTS Assay for Inhibitors of Aldehyde Dehydrogenase 1 (ALDH1A1)
- TEST_CONTEXT: Purified ALDH1A1, NADH fluorescence, propionaldehyde substrate; series mostly up to 75.3 µM
The whole screen tested about 220,000 compounds, of which about 16,000 (7.3%) were called active. Roughly 25% stayed inconclusive and do not appear here. The call rests on the fitted dose curve; in most records, active means well fitted inhibition curve with a large enough effect (not every such curve was filed as active); inconclusive means small, poorly fitted or top-dose-only effect, or another doubt; inactive means no such curve, though single readings can be large or run the other way. Many of the other results were omitted from the sample, so actives are more common in it than they were.
I would appreciate it if you answered using one of these outcomes: active, inactive

MOLECULE: Cc1ccc(Cl)cc1NC(=S)N(CCN(C)C)Cc1cccs1
LABEL_CLASS: inactive

Tell me the assay call for COCCCNC(=S)N1CCCC(c2nc3cc(C)c(C)cc3[nH]2)C1 (centres undefined) please.
inactive

Called result for `Cc1nc2ccccc2n1CC(=O)N/N=C/c1cccnc1`
inactive

###

- TARGET_DESC: Aldehyde dehydrogenase 1A1 (Homo sapiens)
- MEASUREMENT_PROTOCOL: qHTS Assay for Inhibitors of Aldehyde Dehydrogenase 1 (ALDH1A1)
- TEST_CONTEXT: Purified ALDH1A1, NADH fluorescence, propionaldehyde substrate; series mostly up to 75.3 µM
Out of some 220,000 compounds screened, about 16,000 (7.3%) were called active. Not shown: some 25% with an inconclusive outcome. The call rests on the fitted dose curve; in most records, active means well fitted inhibition curve with a large enough effect (not every such curve was filed as active); inconclusive means small, poorly fitted or top-dose-only effect, or another doubt; inactive means no such curve, though single readings can be large or run the other way. Shown is part of a subset that was picked to be rich in actives. Square brackets hold non-standard residues; d marks the D form. Peptide text beside a SMILES is read from it. ξ: configuration not given here. ξM = CSCCC(N)C(=O)O
Your reply should match one of these outcome classes. active, inactive

MOLECULE: COc1ccccc1N1CCN(C(=O)c2ccc(Cl)c(S(=O)(=O)N3CCCC3)c2)CC1
LABEL_CLASS: inactive

I would be grateful if you could indicate the recorded call for `CS(=O)(=O)N(CC(=O)N/N=C/c1ccccn1)c1ccc(Oc2ccccc2)cc1` .
inactive

Outcome logged for CC(OC(=O)c1ccccc1OCc1ccc(Cl)cc1)C(N)=O (stereo not given) in this assay:
inactive

// return assay outcome for COC(=O)CNC(=O)C(CCSC)NC(C)=O (stereo not given) (Ac-[ξM]-Gly-OMe)
inactive

What was the test verdict on `CCCC(=O)Nc1ccccc1N1CCN(C(=O)c2ccccc2)CC1` ?
inactive

What is the recorded call for this molecule in the test? `O=C(Nc1ccccc1)c1ccc2c(c1)OCO2`
inactive

###

- TARGET_DESC: Aldehyde dehydrogenase 1A1 (Homo sapiens)
- MEASUREMENT_PROTOCOL: qHTS Assay for Inhibitors of Aldehyde Dehydrogenase 1 (ALDH1A1)
- TEST_CONTEXT: Purified ALDH1A1, NADH fluorescence, propionaldehyde substrate; series mostly up to 75.3 µM
In all, about 220,000 compounds went through this assay and about 16,000 (7.3%) were called active. Another 25% or so got no clear call; they are omitted. The call rests on the fitted dose curve; in most records, active means well fitted inhibition curve with a large enough effect (not every such curve was filed as active); inconclusive means small, poorly fitted or top-dose-only effect, or another doubt; inactive means no such curve, though single readings can be large or run the other way. For the sample, actives were picked, then their nearest neighbours and some compounds at random.
// one of 1 for active, 0 for inactive, no free text

MOLECULE: Cc1cccc(NC(=O)CSC(N)=O)c1C
TARGET_DESC: Aldehyde dehydrogenase 1A1 (Homo sapiens)
LABEL_CLASS: 1

MOLECULE: Cc1ccc(/C=N/NC(=O)CSc2ccccn2)o1
TARGET_DESC: Aldehyde dehydrogenase 1A1 (Homo sapiens)
LABEL_CLASS: 1

MOLECULE: Cc1ccc(/C=N/NC(=O)Cn2nc(C)c(Br)c2C)o1
TARGET_DESC: Aldehyde dehydrogenase 1A1 (Homo sapiens)
LABEL_CLASS: 0

Tell me the assay call for COc1ccccc1CNC(=O)C1Cc2ccccc2C(=O)O1 (centres undefined) please.
0
